- ASSAY: in vivo
- PROTOCOL_CONDITIONS: male, SD, rat, po, 5 mg/kg, Cmax
Reported Cmax values for the following compounds.
ENDPOINT_NAME: Cmax (ng/mL)

• C/C=C/CNc1nc(C)nc2[nH]c(C)nc12 [MTK-115A] = 769
• C/C=C/CNc1nc(C)nc2[nH]cnc12 [MTK-63A] = 305
• Cc1nc(NCc2ccco2)c2nc(C)[nH]c2n1 = 1040

* * *

- ASSAY: in vivo
- PROTOCOL_CONDITIONS: male, SD, rat, iv, 1 mg/kg, HL_Lambda_z (T1/2)
Collected half-life values appear next to each entry.
ENDPOINT_NAME: half-life (min)

* Cc1nc(NCc2ccco2)c2nc(C)[nH]c2n1 | 23.4
* C/C=C/CNc1nc(C)nc2[nH]cnc12 [MTK-63A] | 7.8
* CCCCNc1nc(C)nc2[nH]c(C)nc12 [MTK-115D] | 7.2
* c1coc(CNc2ncnc3[nH]cnc23)c1 [kinetin, reference compound] | 7.2
